# assayedSystem: Toxin B (TcdB) glycohydrolase, Clostridioides difficile 630
# experiment: TcdB glycohydrolase inhibitors, dose response, biochemical, cherry-pick, plate reader (AID 720512)
# testConditions: recombinant TcdB glycohydrolase activity
Calls of active or inactive are those of the source. No rule for the calls is given here.

# smilesStructure, AC50
rows = [
    ("COc1ccc(C2(CNC(=O)c3ccc(OC)c([N+](=O)[O-])c3)CCCCC2)cc1OC", "> 39 µM (inactive)"),
    ("CC(=O)Nc1cccc2cc(O)ccc12", "> 39 µM (inactive)"),
    ("CC(C)NC(=O)N1CC[C@@H]2[C@H]1c1cc(-c3ccccc3)ccc1N(C)[C@H]2CO", "> 39 µM (inactive)"),
    ("CC(C)NC(=O)N1CC[C@@H]2[C@@H](CO)N(C)c3ccc(-c4ccc(F)cc4)cc3[C@@H]21", "> 42 µM (inactive)"),
    ("CCCNC(=O)N1CC[C@@H]2[C@@H](CO)N(C)c3ccc(-c4ccc(F)cc4)cc3[C@@H]21", "> 42 µM (inactive)"),
    ("Oc1ccc(Cc2ccccc2Cl)c(O)c1", "> 39 µM (inactive)"),
    ("COCC(=O)N1CC[C@@H]2[C@H]1c1cc(-c3ccc(OC)cc3)ccc1N(C)[C@H]2CO", "> 39 µM (inactive)"),
    ("CCNC(=O)C[C@H]1CC[C@@H]2[C@H](COc3ccc(NC(=O)c4ccc5c(c4)OCO5)cc3C(=O)N2C)O1", "> 42 µM (inactive)"),
    ("CCOc1ccccc1/C=C/c1onc(C)c1S(=O)(=O)N1CCC(C(=O)NC)CC1", "> 39 µM (inactive)"),
    ("N=C(N)c1ccc(N=Nc2c(O)ccc3c2[nH]c2ccccc23)cc1", "> 39 µM (inactive)"),
]

====

# assayedSystem: Toxin B (TcdB) glycohydrolase, Clostridioides difficile 630
# experiment: TcdB glycohydrolase inhibitors, dose response, biochemical, cherry-pick, plate reader (AID 720512)
# testConditions: recombinant TcdB glycohydrolase activity
Activity calls are given as the source filed them. The rule behind the calls is not given here.

# smilesStructure, AC50
measured = [
    ("C[C@H](CO)N1C[C@H](C)[C@@H](CN(C)C(=O)Nc2ccc(C(F)(F)F)cc2)Oc2c(NS(=O)(=O)c3ccccc3)cccc2C1=O", "> 39 µM (inactive)"),
    ("CCc1cc(-c2n[nH]c(C)c2-c2nc(C)cs2)c(O)cc1OC", "> 39 µM (inactive)"),
    ("Cc1ccc(C)c2c1cc(C)c1nnc(SCC(=O)NCc3ccc4c(c3)OCO4)n12", "> 39 µM (inactive)"),
    ("CC(=O)N1CC[C@@H]2[C@@H](CO)N(C)c3ccc(-c4ccccc4)cc3[C@@H]21", "> 42 µM (inactive)"),
]

====

# assayedSystem: Toxin B (TcdB) glycohydrolase, Clostridioides difficile 630
# experiment: TcdB glycohydrolase inhibitors, dose response, biochemical, cherry-pick, plate reader (AID 720512)
# testConditions: recombinant TcdB glycohydrolase activity
The source made the active and inactive calls. How the calls were made is not given here.
Labels: active, inactive

# smilesStructure, group
rows = [
    ("Cc1cccc(NC(=O)c2ccc(N3CCOCC3)c([N+](=O)[O-])c2)n1", "inactive"),
    ("CCOc1ccc(/C=N/n2nnnc2N)cc1O", "inactive"),
    ("CCC(=O)N1CC[C@@H]2[C@H]1c1cc(-c3ccccc3)ccc1N(C)[C@H]2CO", "inactive"),
    ("Oc1ccc(/C=N/N2CCN(c3ccccn3)CC2)cc1", "inactive"),
    ("Oc1ccc2ccc3[nH]cnc3c2c1", "inactive"),
    ("Oc1ccc(Nc2nc(Cl)nc(NCc3ccco3)n2)cc1", "active"),
    ("CCC(=O)N1CC[C@@H]2[C@@H](CO)N(C)c3ccc(-c4ccccc4)cc3[C@@H]21", "inactive"),
    ("Cc1cc(N/N=C/c2ccc(O)cc2)c2cccc(C)c2n1", "inactive"),
    ("Cc1cccc(OCCC(=O)NCC(=O)Nc2cccc(C)c2C)c1", "inactive"),
    ("CN1c2ccc(-c3ccccc3)cc2[C@H]2[C@H](CCN2C(=O)CN2CCOCC2)[C@H]1CO", "inactive"),
    ("Oc1ccc(/C=N/N2CCN(Cc3ccccc3)CC2)cc1", "inactive"),
    ("CNc1cncc(-c2ccc(O)cc2)n1", "inactive"),
    ("CCN(CC)CCCCN1c2ccccc2Sc2ccccc21", "inactive"),
    ("CC(=O)N(C)C[C@@H]1Oc2cc(/C=C/c3ccccc3)ccc2S(=O)(=O)N([C@H](C)CO)C[C@@H]1C", "inactive"),
    ("O=C(Nc1ccc(N2CCOCC2)c(Cl)c1)c1ccc(Cl)cc1", "inactive"),
    ("Nc1ccc2nc(-c3cccs3)[nH]c2c1", "inactive"),
    ("COc1cc(/C=N/n2c(-c3ccccc3)n[nH]c2=S)ccc1O", "inactive"),
    ("C[C@H](CO)N1C[C@H](C)[C@@H](CN(C)C(=O)Nc2ccc(C(F)(F)F)cc2)Oc2c(NS(=O)(=O)c3cccs3)cccc2C1=O", "inactive"),
    ("COC1=C/C(=C/c2c(N)n3nc(CC(=O)N4CCOCC4)sc3nc2=O)C=CC1=O", "inactive"),
    ("Cc1cc(C(=O)NNc2ccc(C)c(C)c2)no1", "active"),
    ("CC1(C)Cc2c(sc3ncn4c(=S)[nH]nc4c23)CO1", "inactive"),
    ("FC(F)(F)c1cc(CCN2CCNC[C@H]2Cc2cccc3ccccc23)cc(C(F)(F)F)c1", "inactive"),
]
